Phage library screen NGS readout, Target Concentration 300 for assorted sequences
MEASURED_TARGET: RNF31 PUB domain (Homo sapiens, UniProt Q96EP0)
Construct: MBP-TEV (N, cleaved yes); made in house; host or cells: E. coli BL21 (DE3) pLysS
Sequence (Q96EP0 1-179): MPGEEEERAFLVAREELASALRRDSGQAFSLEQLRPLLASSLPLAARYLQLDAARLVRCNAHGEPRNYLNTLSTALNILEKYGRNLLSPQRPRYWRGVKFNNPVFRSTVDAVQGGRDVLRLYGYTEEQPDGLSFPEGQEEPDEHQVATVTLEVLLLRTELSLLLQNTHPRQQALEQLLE
MEASUREMENT_NOTES: Phage Library Screening with NGS, RNF31 PUB domain
Format: binding
SETUP_CONDITIONS: RNF31 PUB domain clusters C41-C45; target concentration 300
Bridge positions count the residues as written; N and C are the ends.

The following sequences have reported results that may help.
{"columns": ["SEQUENCE_STRING", "OBSERVED_RESULT"],
 "data": [
  ["DPAWMDCLYAAYDCQHM", 9],
  ["DPARRECWDAAILCTYY", 12],
  ["DPAIVQCAWAALYCDMQ (Ac-DPAIVQCAWAALYCDMQ-NH2; bridge 7-14; also: Cys-Cys staple, linker not named)", 7]
]}

IN: Identify measured Phage library screen NGS readout, Target Concentration 300 corresponding to DPAWDYCMYAAYDCNHS
OUT: 8

IN: Answer with the recorded Phage library screen NGS readout, Target Concentration 300 of DPAYSSCSWAAIYCNWT only.
OUT: 2

IN: State its Phage library screen NGS readout, Target Concentration 300 for this sequence: DPAYWHCLYAAASCDDI
OUT: 2

IN: Note Phage library screen NGS readout, Target Concentration 300 for the sequence shown: DPAAWECHIAAFVCSTY
OUT: 2

IN: Give the measured Phage library screen NGS readout, Target Concentration 300 for DPAEEYCLEAAILCTYD
OUT: 14

* * *

MEASURED_TARGET: PPIA (Homo sapiens, UniProt P62937)
Construct: Full length PPIA (residues 1-165) with an N-terminal 6×his-yBBR-TEV tag; 6×his-yBBR-TEV (N); made in house; host or cells: E. coli BL21 (DE3) CodonPlus RIPL
Sequence (P62937 whole entry, the tested form may be a part): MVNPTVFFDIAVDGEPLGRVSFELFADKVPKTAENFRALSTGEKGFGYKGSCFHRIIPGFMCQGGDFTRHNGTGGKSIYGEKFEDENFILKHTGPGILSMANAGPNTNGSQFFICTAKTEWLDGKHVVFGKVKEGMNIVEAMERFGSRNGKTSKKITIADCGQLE
MEASUREMENT_NOTES: Phage Library Screening with NGS, PPIA
Assay type: binding
SETUP_CONDITIONS: target concentration 30
MEASUREMENT_LABEL: phage screen counts, Target Concentration 30
Lab note: record just the number, no unit beside it.

{"columns": ["SEQUENCE_STRING", "OBSERVED_RESULT"],
 "data": [
  ["DPARADCHVAAYWCHHQ", 0]
]}

IN: State the measured phage screen counts, Target Concentration 30 (PPIA (Homo sapiens, UniProt P62937)) of PTCHVQAWYCW
OUT: 0

IN: GET phage screen counts, Target Concentration 30 where system = PPIA (Homo sapiens, UniProt P62937) and item = PNCHVEAYFCM
OUT: 1

IN: State phage screen counts, Target Concentration 30 (PPIA (Homo sapiens, UniProt P62937)) of PECHVEAYFCE .
OUT: 0

IN: Recall the reported phage screen counts, Target Concentration 30 of DPAQHDCHVAAYQCIWE when tested on PPIA (Homo sapiens, UniProt P62937).
OUT: 52

IN: Name the recorded phage screen counts, Target Concentration 30 of PYDCHIAAWMC , assay system PPIA (Homo sapiens, UniProt P62937).
OUT: 0

IN: State recorded phage screen counts, Target Concentration 30 with PPIA (Homo sapiens, UniProt P62937), entry PNCHLYAWECY , no comment.
OUT: 0

IN: Fill in phage screen counts, Target Concentration 30 for DPARAACHVAAYWCYHQ tested with PPIA (Homo sapiens, UniProt P62937).
OUT: 1

IN: // fetch phage screen counts, Target Concentration 30; item: DPATMNCHVAAYFCIVE ; system: PPIA (Homo sapiens, UniProt P62937)
OUT: 0

IN: Send back PPIA (Homo sapiens, UniProt P62937) phage screen counts, Target Concentration 30 of PDCHIYAFYCL only.
OUT: 0

IN: Write down measured phage screen counts, Target Concentration 30 (PPIA (Homo sapiens, UniProt P62937)) for this sequence. DPAAFSCHVAAWQCHTL
OUT: 1

IN: Write down the reported phage screen counts, Target Concentration 30 (system: PPIA (Homo sapiens, UniProt P62937)) of DPARADCHVAAYWCYHR
OUT: 1

IN: Write phage screen counts, Target Concentration 30 of DPARSDCHVAAYWCYHQ ; system used: PPIA (Homo sapiens, UniProt P62937)
OUT: 0

IN: Using PPIA (Homo sapiens, UniProt P62937) as the test system, report measured phage screen counts, Target Concentration 30 of DPARYSCHVAAYECILN .
OUT: 0

IN: State recorded phage screen counts, Target Concentration 30 with PPIA (Homo sapiens, UniProt P62937), entry DPALFDCHIAAYQCIFY , no comment.
OUT: 0

IN: Using PPIA (Homo sapiens, UniProt P62937) as the test system, report measured phage screen counts, Target Concentration 30 of PFCHIEAYYCW .
OUT: 0

IN: Given DPAQLNCHVAAFFCFQS , report its phage screen counts, Target Concentration 30 on PPIA (Homo sapiens, UniProt P62937).
OUT: 0

IN: Jot down phage screen counts, Target Concentration 30 (PPIA (Homo sapiens, UniProt P62937)) of PDCHLNAYWCM .
OUT: 0

IN: Tell me its phage screen counts, Target Concentration 30 on PPIA (Homo sapiens, UniProt P62937): PDCHVAAYICY
OUT: 0

IN: Return reported phage screen counts, Target Concentration 30 for target or system PPIA (Homo sapiens, UniProt P62937), item PHDCHVNAWYC .
OUT: 0

IN: Report value only: phage screen counts, Target Concentration 30, PPIA (Homo sapiens, UniProt P62937), PNCHVMAYWCW
OUT: 0

IN: Find the measured phage screen counts, Target Concentration 30 of DPARTDCHVAAYWCYHQ with PPIA (Homo sapiens, UniProt P62937) as test system.
OUT: 5

IN: Report value: phage screen counts, Target Concentration 30, system: PPIA (Homo sapiens, UniProt P62937), sequence: PTCHIDAWVCY
OUT: 0

IN: Provide phage screen counts, Target Concentration 30, system PPIA (Homo sapiens, UniProt P62937), entry PDCHVAAWMCF
OUT: 0

IN: Supply phage screen counts, Target Concentration 30 measured with PPIA (Homo sapiens, UniProt P62937) for PDCHIAAWYCR .
OUT: 0

IN: Report measured phage screen counts, Target Concentration 30 on PPIA (Homo sapiens, UniProt P62937); entry: DPARADCHVAAYWCYHE
OUT: 1
